# credit: ChEMBL document CHEMBL3600382

TEST_SYSTEM: Steryl-sulfatase (Homo sapiens, UniProt P08842)
Sequence (P08842 whole entry): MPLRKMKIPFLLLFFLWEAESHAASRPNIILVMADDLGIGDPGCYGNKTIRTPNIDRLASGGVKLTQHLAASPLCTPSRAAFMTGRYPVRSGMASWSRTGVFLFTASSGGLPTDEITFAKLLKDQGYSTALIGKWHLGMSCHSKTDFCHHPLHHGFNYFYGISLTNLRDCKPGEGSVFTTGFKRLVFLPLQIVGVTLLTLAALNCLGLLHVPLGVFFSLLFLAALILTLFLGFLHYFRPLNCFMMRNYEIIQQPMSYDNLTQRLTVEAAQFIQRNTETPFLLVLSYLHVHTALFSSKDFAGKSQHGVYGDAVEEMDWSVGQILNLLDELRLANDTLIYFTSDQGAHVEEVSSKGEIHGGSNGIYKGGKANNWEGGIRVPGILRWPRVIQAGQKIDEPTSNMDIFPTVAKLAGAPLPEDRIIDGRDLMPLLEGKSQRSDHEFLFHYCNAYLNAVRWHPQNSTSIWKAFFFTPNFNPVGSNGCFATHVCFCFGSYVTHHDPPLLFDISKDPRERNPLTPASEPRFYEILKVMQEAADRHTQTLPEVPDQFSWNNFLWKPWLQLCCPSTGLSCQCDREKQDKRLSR
VALUE_KIND: IC50 (nM)

- C[C@]12CC[C@@H]3c4ccc(O)c([N+](=O)[O-])c4CC[C@H]3[C@@H]1CC[C@@H]2NS(=O)(=O)c1cccc(C(F)(F)F)c1: 11
- C[C@]12CC[C@@H]3c4cc([N+](=O)[O-])c(O)cc4CC[C@H]3[C@@H]1CC[C@@H]2NS(=O)(=O)c1cccc(C(F)(F)F)c1: 67
- C[C@]12CC[C@@H]3c4ccc(O)c([N+](=O)[O-])c4CC[C@H]3[C@@H]1CC[C@@H]2NS(=O)(=O)c1cccc(Br)c1: 12

###

System: IGROV-1
PROTOCOL_NOTES: Cytotoxicity against human IGROV1 cells
Type: functional
Let's look at some compounds and their measured GI50.
VALUE_KIND: GI50 (nM)

- C[C@]12CC[C@@H]3c4ccc(O)cc4CC[C@H]3[C@@H]1CC[C@@H]2NS(=O)(=O)c1cccc(C(F)(F)F)c1: 1000
- C[C@]12CC[C@@H]3c4ccc(O)c([N+](=O)[O-])c4CC[C@H]3[C@@H]1CC[C@@H]2NS(=O)(=O)c1cccc(C(F)(F)F)c1: 1000
- C[C@]12CC[C@@H]3c4ccc(O)c([N+](=O)[O-])c4CC[C@H]3[C@@H]1CC[C@@H]2NS(=O)(=O)c1cccc(Br)c1: 1000
- C[C@]12CC[C@@H]3c4ccc(O)cc4CC[C@H]3[C@@H]1CC[C@@H]2NS(=O)(=O)c1cccc(Br)c1: 1000

###

Let's look at some compounds and their measured GI50.
Tested on: OVCAR-3
PROTOCOL_NOTES: Cytotoxicity against human OVCAR3 cells
Assay type: functional
VALUE_KIND: GI50 (µM)

* C[C@]12CC[C@@H]3c4ccc(O)cc4CC[C@H]3[C@@H]1CC[C@@H]2NS(=O)(=O)c1cccc(Br)c1 | 1
* C[C@]12CC[C@@H]3c4ccc(O)cc4CC[C@H]3[C@@H]1CC[C@@H]2NS(=O)(=O)c1cccc(C(F)(F)F)c1 | 1
* C[C@]12CC[C@@H]3c4ccc(O)c([N+](=O)[O-])c4CC[C@H]3[C@@H]1CC[C@@H]2NS(=O)(=O)c1cccc(Br)c1 | 1
* C[C@]12CC[C@@H]3c4ccc(O)c([N+](=O)[O-])c4CC[C@H]3[C@@H]1CC[C@@H]2NS(=O)(=O)c1cccc(C(F)(F)F)c1 | 1
